Reported values of GI50 for individual entries
System: CCRF-CEM
assayNotes: NCI tumour cell line growth inhibition, 48 h
The source made the active and inactive calls. No stated cut-off is given here; in the data, active = GI50 up to about 1.1 µM and inactive = higher.
attributeMeasured: GI50

| molecule | experimentalValue |
| --- | --- |
| CCOC(=O)c1c(SC(=O)c2ccc(OC)cc2)n(-c2ccccc2)c(=S)n(-c2ccccc2)c1=O | 35.6 µM (inactive) |
| Cc1cccc(C(O)c2ccncc2)c1O (stereo unspecified) | > 100 µM (inactive) |
| CC1(O)CC23CC1CCC2(C)C12CCCC(C)(C(=O)O1)C2CC3O (stereo unspecified) | > 100 µM (inactive) |
| COC1(C)CCC(OS(C)(=O)=O)CO1 (stereo unspecified) | > 100 µM (inactive) |
| COC(=O)C1=CC(=O)OC1(OO)c1ccc(Br)cc1 (stereo unspecified) | 27 µM (inactive) |
| COc1ccc2c(c1)CCc1c-2n(CCN2CCOCC2)c2ccc(OC)cc12 | 16.4 µM (inactive) |
